# TESTED_SYSTEM: Trace amine-associated receptor 1 (Homo sapiens) (UniProt Q96RJ0)
# Sequence (Q96RJ0 whole entry, looked up): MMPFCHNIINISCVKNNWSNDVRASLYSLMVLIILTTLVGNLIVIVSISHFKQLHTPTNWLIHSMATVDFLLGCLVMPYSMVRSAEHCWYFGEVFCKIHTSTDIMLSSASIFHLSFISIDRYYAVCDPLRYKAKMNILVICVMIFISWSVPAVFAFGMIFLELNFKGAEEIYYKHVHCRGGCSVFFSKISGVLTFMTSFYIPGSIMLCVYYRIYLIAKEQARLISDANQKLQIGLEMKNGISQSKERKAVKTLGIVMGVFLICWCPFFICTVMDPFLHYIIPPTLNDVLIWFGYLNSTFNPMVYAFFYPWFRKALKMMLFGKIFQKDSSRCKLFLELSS
# METHOD: blockers of beta-PEA-driven TAAR1 calcium signal – Fluo-8 calcium fluorescence, CHO RD-HGA16 cells, primary screen (AID 624466);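 also: 0% = DMSO plus EC80 beta-PEA response and 100% = DMSO alone without agonist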
# STUDY_CONDITIONS: CHO RD-HGA16 TAAR1, Fluo-8 calcium fluorescence, antagonist; at 3 µM; active compounds read high
Among all 360,000 compounds or so, about 5,400 (1.5%) were called active. What follows is part of a selection rich in actives, with near analogues and random picks from the rest.
QUANTITY: inhibition

# MOLECULE, TESTED_SYSTEM, inhibition
rows = [
    ("CCOc1ccccc1CN1CCN(C2CCC2)CC1CCO (stereo unspecified)", "Trace amine-associated receptor 1 (Homo sapiens) (UniProt Q96RJ0)", "6.95% (inactive)"),
    ("C=CCc1cc(S(=O)(=O)c2ccc(O)c(CC=C)c2)ccc1O", "Trace amine-associated receptor 1 (Homo sapiens) (UniProt Q96RJ0)", "56.9% (active)"),
    ("NS(=O)(=O)c1cccc(NC(=O)COC(=O)c2cc([N+](=O)[O-])ccc2N2CCCC2)c1", "Trace amine-associated receptor 1 (Homo sapiens) (UniProt Q96RJ0)", "7.66% (inactive)"),
    ("Cc1nn(-c2ccccc2)c(C)c1NC(=O)CCl", "Trace amine-associated receptor 1 (Homo sapiens) (UniProt Q96RJ0)", "-8.39% (inactive)"),
    ("C[C@H](NC(=O)[C@@H]1CCCN1C(=O)[C@@H]1CCCN1C(=O)c1ccccc1)c1ccccc1", "Trace amine-associated receptor 1 (Homo sapiens) (UniProt Q96RJ0)", "2.01% (inactive)"),
]

Look up inhibition for the entries below, preserving their order.
1. Cc1ccc(NC(=O)c2ccc(CSc3ncnc4nc[nH]c34)cc2)c(C)c1
2. S=C(Nc1ccc(Br)cc1)NC1CCN(Cc2ccccc2)CC1
3. Cc1cccc(C)c1NC(=O)COC(=O)c1c(C)nn(-c2ccccc2)c1C
4. Cc1nn(-c2ccccc2)c(C)c1NC(=O)COC(=O)c1cc(Cl)ccc1O

1: 56.7% (active); 2: 51.4% (active); 3: -6.4% (inactive); 4: 68.3% (active)
